- Tested on: Phytophthora infestans
- PROTOCOL DETAILS: whole plant or invertebrate
- Assay type: in vivo
- MEASUREMENT CONTEXT: in Solanum lycopersicum, 72 h, read-out: Efficiacy in %
Measured pest or weed control at 1 g/ha, listed per entry for reference.

Below, each entry is followed by its recorded pest or weed control at 1 g/ha result.
COMPOUND	EXPERIMENTAL SYSTEM	ASSAY VALUE
Cc1cc(C2CC2)nc(Nc2ccccc2)n1	Phytophthora infestans	0%
Cc1ccc(C(C)NC(=O)C(NC(=O)OC(C)C)C(C)C)cc1 (stereo not drawn)	Phytophthora infestans	0%
Cc1noc(C)c1S(=O)(=O)n1c(Cl)nc2cc3c(cc21)OC(F)(F)O3	Phytophthora infestans	76%

// fetch pest or weed control at 1 g/ha given entry CO/N=C(\C1=NOCCO1)c1ccccc1Oc1ncnc(Oc2ccccc2Cl)c1F
27%

// fetch pest or weed control at 1 g/ha given entry Cc1cc(C)nc(Nc2ccccc2)n1
0%

// fetch pest or weed control at 1 g/ha given entry Cc1noc(C)c1S(=O)(=O)n1c(Br)nc2cc3c(cc21)OC(F)(F)O3
65%

Where these numbers come from: patent US20020072535A1
